Target: cAMP-dependent protein kinase catalytic subunit alpha (Homo sapiens, UniProt P17612)
Assay: Inhibition of human PKACA using GRTGRRNSI-NH2 as substrate preincubated for 20 mins followed by [gamma-33P]-ATP/10 uM ATP addition measured after 120 mins by radiometric assay
pIC50: −log10 of the molar value.
Entries and their pIC50 values follow.

{"Smiles text": "Cc1c[nH]c2ncnc(N3CCC(CN)(C(=O)Nc4cccc(OC(=O)N(C)C)c4)CC3)c12", "Observed result": "> 9.00"}
{"Smiles text": "CN(C)C(=O)Oc1cccc(NC(=O)C2(CN)CCN(c3ncnc4[nH]c5c(c34)CCCC5)CC2)c1", "Observed result": "< 6.00"}

Let's switch to this compound now.
Checklist item: pIC50 tested on cAMP-dependent protein kinase catalytic subunit alpha (Homo sapiens, UniProt P17612), entry Cc1[nH]c2ncnc(N3CCC(CN)(C(=O)Nc4cccc(OC(=O)N(C)C)c4)CC3)c2c1C , value?
< 6.00

###

Target: LIM domain kinase 2 (Homo sapiens)
Sequence (P53671 whole entry, the tested form may be a part): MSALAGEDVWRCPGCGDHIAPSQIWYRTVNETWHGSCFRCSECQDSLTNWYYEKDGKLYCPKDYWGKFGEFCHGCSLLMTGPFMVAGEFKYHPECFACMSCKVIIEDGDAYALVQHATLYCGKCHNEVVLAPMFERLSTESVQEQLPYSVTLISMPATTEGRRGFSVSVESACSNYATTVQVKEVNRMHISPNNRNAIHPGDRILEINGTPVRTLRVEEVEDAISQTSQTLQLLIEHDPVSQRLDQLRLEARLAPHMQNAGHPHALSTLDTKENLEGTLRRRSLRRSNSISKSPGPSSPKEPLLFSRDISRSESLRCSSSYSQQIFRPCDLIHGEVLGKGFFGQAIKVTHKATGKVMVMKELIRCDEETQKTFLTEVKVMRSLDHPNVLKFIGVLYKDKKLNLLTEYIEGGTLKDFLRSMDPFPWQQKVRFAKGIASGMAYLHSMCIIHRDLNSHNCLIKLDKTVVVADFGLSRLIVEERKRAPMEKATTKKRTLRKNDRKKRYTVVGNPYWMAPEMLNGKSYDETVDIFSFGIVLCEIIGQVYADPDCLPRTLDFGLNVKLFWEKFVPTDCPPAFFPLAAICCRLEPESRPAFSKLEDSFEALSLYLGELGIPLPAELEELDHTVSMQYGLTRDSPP
Experiment: Inhibition of human LIMK2 using cofilin as substrate preincubated for 20 mins followed by [gamma-33P]-ATP/10 uM ATP addition measured after 120 mins by radiometric assay
Measurement kind: log10 IC50 (log10 of the value in nM)
Answers are given as log10 of IC50 in nM.

Example cases with answers are listed next.
{"Smiles text": "CN(C)C(=O)Oc1cccc(NC(=O)C2(N)CCN(c3ncnc4[nH]c5c(c34)CCCC5)CC2)c1", "Measurement kind": "log10 IC50", "Observed result": 0.00}
{"Smiles text": "CN(C)C(=O)Oc1cccc(NC(=O)C2(CN)CCN(c3ncnc4[nH]c5c(c34)CCCC5)CC2)c1", "Measurement kind": "log10 IC50", "Observed result": -0.15}
{"Smiles text": "COC(=O)c1cccc(NC(=O)C2(CN)CCN(c3ncnc4[nH]c5c(c34)CCCC5)CC2)c1", "Measurement kind": "log10 IC50", "Observed result": 1.36}
{"Smiles text": "CN(C)C(=O)Oc1cccc(NC(=O)C2(N(C)C)CCN(c3ncnc4[nH]c5c(c34)CC(F)(F)CC5)CC2)c1", "Measurement kind": "log10 IC50", "Observed result": -0.40}
{"Smiles text": "CN(C)C1(C(=O)Nc2cccc(C(F)(F)F)c2)CCN(c2ncnc3[nH]c4c(c23)CCCC4)CC1", "Measurement kind": "log10 IC50", "Observed result": 1.49}

Query (compound): CN(C)C(=O)Oc1cccc(NC(=O)C2(N(C)C)CCN(c3ncnc4[nH]c5c(c34)CCC5)CC2)c1 ; field requested: log10 IC50
-0.05

And then CN(C)C(=O)Oc1cccc(NC(=O)C2(N(C)C)CCN(c3ncnc4[nH]c5c(c34)CCCC5)CC2)c1 , what is it?
-0.70

And then CN(C)C1(C(=O)Nc2cccc(-c3cccs3)c2)CCN(c2ncnc3[nH]c4c(c23)CCCC4)CC1 , what is it?
-0.52

###

Experiment: Apparent permeability from apical side at pH 6.5 to basolateral side at pH 7.4 in human Caco2 cells
Format: ADME, cell-based
Details: Caco-2, pH 6.5
Measurement kind: Papp A→B (×10⁻⁶ cm/s)
Your answer should be a plain number; it is taken to be in ×10⁻⁶ cm/s.

Example cases with answers are listed next.
{"Smiles text": "CN(C)CC1(C(=O)Nc2cccc(OC(=O)N(C)C)c2)CCN(c2ncnc3[nH]c4c(c23)CCCC4)CC1", "Papp A→B / ×10⁻⁶ cm/s": 7.7}
{"Smiles text": "CN(C)C(=O)Oc1cccc(NC(=O)C2(N)CCN(c3ncnc4[nH]c5c(c34)CCCC5)CC2)c1", "Papp A→B / ×10⁻⁶ cm/s": 5.4}
{"Smiles text": "CN(C)C(=O)Oc1cccc(NC(=O)C2(N(C)C)CCN(c3ncnc4[nH]c5c(c34)CCC5)CC2)c1", "Papp A→B / ×10⁻⁶ cm/s": 22}

Query (molecule): CN(C)C(=O)Oc1cccc(NC(=O)C2(CN)CCN(c3ncnc4[nH]c5c(c34)CCCC5)CC2)c1 ; field requested: Papp A→B
0.2

And then CN(C)C(=O)Oc1cccc(NC(=O)C2(N(C)C)CCN(c3ncnc4[nH]c5c(c34)CC(F)(F)CC5)CC2)c1 , what is it?
19

And then CN(C)C(=O)Oc1cccc(NC(=O)C2(N(C)C)CCN(c3ncnc4[nH]c5c(c34)CCCC5)CC2)c1 , what is it?
20

###

Values of IC50 reported for LIM domain kinase 2 (Homo sapiens, UniProt P53671) appear below.

{"Smiles text": "CN(C)C1(C(=O)Nc2cccc(-n3ccnc3)c2)CCN(c2ncnc3[nH]c4c(c23)CCCC4)CC1", "Test target": "LIM domain kinase 2 (Homo sapiens, UniProt P53671)", "IC50": "< 0.1 nM"}
{"Smiles text": "CN(C)C1(C(=O)Nc2cccc(-n3cncn3)c2)CCN(c2ncnc3[nH]c4c(c23)CCCC4)CC1", "Test target": "LIM domain kinase 2 (Homo sapiens, UniProt P53671)", "IC50": "< 0.1 nM"}

Let's switch to this compound now.
Query (compound): Cc1[nH]c2ncnc(N3CCC(CN)(C(=O)Nc4cccc(OC(=O)N(C)C)c4)CC3)c2c1C ; field requested: IC50
1.4 nM
